assayNotes: Caco-2 cellular uptake / permeability assay (A-to-B, B-to-A)
Type: in vitro ADME
measurementParameters: human, Caco-2, pH 7.4
property: efflux ratio at 120 min, 5 μM

Worked cases, answers included:
[
  {
    "structureNotation": "COc1cccc(OC)c1-c1cc(C(=O)N[C@@H](CCN2CCCC(F)(F)C2)CC(=O)NC2CCC2)nn1C1CCCC1",
    "testResult": 2.1
  },
  {
    "structureNotation": "COc1cccc(OC)c1-c1cc(C(=O)N[C@@H](CCN2CCC(F)(F)CC2)CC(=O)NC2CCC2)nn1C1CCCC1",
    "testResult": 1
  }
]

P: COc1cccc(OC)c1-c1cc(C(=O)N[C@@H](CCN2CCCC(F)(F)C2)CC(=O)Nc2nccs2)nn1C1CCCC1
Q: CCc1ccccc1-c1cc(C(=O)N[C@@H](CCN2CCCC(F)(F)C2)CC(=O)Nc2nccs2)nn1C1CCCC1
R: CCc1ccccc1-c1cc(C(=O)N[C@@H](CCN2CCCCC2)CC(=O)NC2CCC2)nn1C1CCCC1
Sort these compounds on efflux ratio at 120 min, 5 μM so the largest reading comes first. Provide your answer as the labels ordered per the instruction.
R, P, Q
